Consider the following Ki values measured on D(3) dopamine receptor (Rattus norvegicus, UniProt P19020).
Sequence (P19020 whole entry): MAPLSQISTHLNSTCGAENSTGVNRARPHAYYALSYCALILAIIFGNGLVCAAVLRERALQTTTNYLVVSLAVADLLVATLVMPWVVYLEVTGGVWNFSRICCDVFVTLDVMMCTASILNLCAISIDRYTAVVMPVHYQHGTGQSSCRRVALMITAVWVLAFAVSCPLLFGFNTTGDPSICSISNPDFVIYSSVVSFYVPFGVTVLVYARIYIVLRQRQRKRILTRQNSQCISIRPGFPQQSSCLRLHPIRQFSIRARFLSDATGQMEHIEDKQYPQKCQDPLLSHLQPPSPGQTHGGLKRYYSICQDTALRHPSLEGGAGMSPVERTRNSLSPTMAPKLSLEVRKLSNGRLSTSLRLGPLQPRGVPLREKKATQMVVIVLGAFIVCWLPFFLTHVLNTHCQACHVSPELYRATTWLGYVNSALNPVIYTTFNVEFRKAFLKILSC
Give bare numbers, in nM.

The cases that follow already have their Ki on record.
CCCN(CC[C@H]1CC[C@H](NC(=O)/C=C/c2ccccc2OC)CC1)[C@H]1CCc2nc(N)sc2C1 :: 8.1
CCCN(CC[C@H]1CC[C@H](NS(=O)(=O)c2ccc(C(C)(C)C)cc2)CC1)[C@H]1CCc2nc(N)sc2C1 :: 5
CCCN(CC[C@H]1CC[C@H](NC(=O)c2cccc3cnccc23)CC1)[C@H]1CCc2nc(N)sc2C1 :: 5.9
CCCN(CC[C@H]1CC[C@H](NC(=O)c2ccc(-c3noc(CC)n3)cc2)CC1)[C@H]1CCc2nc(N)sc2C1 :: 2.1
CCCN(CC[C@H]1CC[C@H](NC(=O)/C=C/c2ccc(Cl)cc2)CC1)[C@H]1CCc2nc(N)sc2C1 :: 2.5

Need Ki for each of these molecules.
1. CCCN(CC[C@H]1CC[C@H](NC(=O)c2cccc(-n3cncn3)c2)CC1)[C@H]1CCc2nc(N)sc2C1
2. CCCN(CC[C@H]1CC[C@H](NS(=O)(=O)c2ccc3ccccc3c2)CC1)[C@H]1CCc2nc(N)sc2C1
3. CCCN(CC[C@H]1CC[C@H](NC(=O)/C=C/c2ccc(F)cc2)CC1)[C@H]1CCc2nc(N)sc2C1

// result
[3, 1.5, 1]

Hey, just so you know, these numbers are from ChEMBL document CHEMBL2146442.
